# System: GST-tagged Cn
# procedure text: PEPperPRINT peptide microarray binding assay with GST-tagged Cn
# conditions used: GST-tagged Cn, mean over the spots named in Location on chip
property: Chip Fluorescence (mean)
Respond numerically, and do not add a unit to the figure.

Below, each entry is followed by its recorded Chip Fluorescence (mean) result.
SSKSLPTFSFSSPVSH [SeqRBMlowT_6060] | 0.1061
HSKFIPKLSIQSPVLH [SeqRBMlowT_6746] | -0.2423
QPPQNPVATVSTAHHQ [SeqRBM_6519] | -0.008148
STEIIATLFVQVANEY [Seqshuffled_9888] | -0.5855

Query sequence follows.
Notebook entry, GST-tagged Cn assay: Chip Fluorescence (mean) of AINASPEIVVGYDELP [SeqRBM_6435] = ? 1.232
